Target: NLRP3 (Homo sapiens)
Construct: Seed THP-1 cells (25,000 cells/well) containing 1.0 μg/ml LPS in 40 μl of RPMI medium; host or cells: THP-1 cells
Sequence (Q96P20 whole entry): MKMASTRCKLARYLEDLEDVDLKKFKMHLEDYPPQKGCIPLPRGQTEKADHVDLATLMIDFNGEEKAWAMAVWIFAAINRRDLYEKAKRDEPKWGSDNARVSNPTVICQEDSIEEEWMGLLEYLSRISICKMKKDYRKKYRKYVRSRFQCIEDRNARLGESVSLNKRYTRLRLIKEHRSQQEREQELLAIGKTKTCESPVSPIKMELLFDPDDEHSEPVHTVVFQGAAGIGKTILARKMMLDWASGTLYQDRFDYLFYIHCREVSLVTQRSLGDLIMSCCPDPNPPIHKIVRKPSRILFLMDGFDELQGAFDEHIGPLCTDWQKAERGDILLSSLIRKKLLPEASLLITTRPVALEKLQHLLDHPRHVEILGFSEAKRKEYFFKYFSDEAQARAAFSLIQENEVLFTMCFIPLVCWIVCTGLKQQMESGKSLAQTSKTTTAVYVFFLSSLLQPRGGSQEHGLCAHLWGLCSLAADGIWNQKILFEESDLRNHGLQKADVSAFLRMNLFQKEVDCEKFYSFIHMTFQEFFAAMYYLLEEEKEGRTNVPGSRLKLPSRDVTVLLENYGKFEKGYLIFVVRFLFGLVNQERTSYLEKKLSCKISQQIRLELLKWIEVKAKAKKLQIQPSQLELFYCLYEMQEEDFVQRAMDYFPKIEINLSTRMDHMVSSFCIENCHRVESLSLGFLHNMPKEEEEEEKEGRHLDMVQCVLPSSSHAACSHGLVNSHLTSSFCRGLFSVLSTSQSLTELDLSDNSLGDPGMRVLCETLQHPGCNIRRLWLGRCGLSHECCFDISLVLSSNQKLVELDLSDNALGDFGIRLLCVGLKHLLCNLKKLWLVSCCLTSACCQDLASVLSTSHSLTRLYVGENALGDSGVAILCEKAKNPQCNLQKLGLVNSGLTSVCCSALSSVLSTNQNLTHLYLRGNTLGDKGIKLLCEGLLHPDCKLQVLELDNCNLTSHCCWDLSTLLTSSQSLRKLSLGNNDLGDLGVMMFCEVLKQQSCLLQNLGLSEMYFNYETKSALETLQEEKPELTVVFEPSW
Test: THP-1 cells pyroptosis assay
Format: cell-based
Settings: LPS 1 μg/ml, compound 3 hrs, nigericin 5 μM 1 hr, resazurin readout
result-type: IC50

# molecule, result
data = [
    ("COc1cc(-c2cc(F)cc(C(C)C)c2CC(=O)NS(=O)(=O)c2ccnc(C(C)(C)O)c2)ccn1", "≤ 500 nM"),
    ("COc1cc(-c2cc(F)cc(C(C)C)c2CC(=O)NS(=O)(=O)c2ccc(CCN(C)C)cc2)ccn1", "≤ 5000 nM"),
    ("COc1cc(-c2cc(F)cc(C(C)C)c2C(F)C(=O)NS(=O)(=O)c2cc(C(C)(C)O)cs2)ccn1 (stereo not drawn)", "≤ 5000 nM"),
    ("COc1cc(-c2cc(F)cc(C(C)C)c2CC(=O)NS(=O)(=O)c2cn(CC(F)F)nc2C)ccn1", "≤ 5000 nM"),
    ("COc1cc(-c2cc(F)cc(C(C)C)c2CC(=O)NS(=O)(=O)c2ccc(C(C)(C)N(C)C)c(F)c2)ccn1", "≤ 5000 nM"),
    ("COc1cc(-c2cc(F)cc(C(C)C)c2CC(=O)NS(=O)(=O)c2ccc(C(=O)N(C)C)c(Cl)c2)ccn1", "≤ 10000 nM"),
    ("COc1cc(-c2cc(F)cc(C(C)C)c2CC(=O)NS(=O)(=O)c2ccc(-c3cnco3)cc2)ccn1", "≤ 1000 nM"),
    ("COc1cc(-c2cc(F)cc(C(C)C)c2CC(=O)NS(=O)(=O)c2ccc(C(C)(C)O)c(Cl)c2)ccn1", "≤ 500 nM"),
]

Fill in IC50 for each of the 7 molecules listed.
1. Cc1cnccc1-c1cc(F)cc(C(C)C)c1CC(=O)NS(=O)(=O)c1cc(C(C)(C)O)cs1
2. COC(=O)c1cc(S(=O)(=O)NC(=O)Cc2c(-c3ccnc(OC)c3)cc(F)cc2C(C)C)sc1C
3. COc1cc(-c2cc(F)cc(C(C)C)c2CC(=O)NS(=O)(=O)c2ccc(Cl)cc2)ccn1
4. COc1cc(-c2cc(F)cc(C(C)C)c2CC(=O)NS(=O)(=O)c2ccccc2)ccn1
5. CC(C)c1cc(F)cc(-c2cccnc2)c1CC(=O)NS(=O)(=O)c1cc(C(=O)N(C)C)n(C)n1
6. C=C(C)c1csc(S(=O)(=O)NC(=O)Cc2c(C(C)C)nn(C)c2-c2ccnc(OC)c2)c1
7. COc1cc(-c2cc(F)cc(C(C)C)c2CC(=O)NS(=O)(=O)c2ccc(Cl)cc2F)ccn1

Solution:
1. ≤ 500 nM
2. ≤ 500 nM
3. ≤ 1000 nM
4. ≤ 5000 nM
5. ≤ 5000 nM
6. ≤ 500 nM
7. ≤ 1000 nM

From: patent US12030879B2
